I'd appreciate it if you could supply Activity values for the items below.
assay.method.text: Induction of superoxide generation measured per 2 mU of enzyme in presence of cytochrome P450 oxidoreductase
Format: physicochemical
The answer is to be given in µmol/L/min; state only the numeric part.

Enquiry: Look up Activity of "O=C1c2ccsc2C(=O)c2c(O)cccc21" and report it.
Return: 1.8

Enquiry: Look up Activity of "CCc1noc(-c2cc3c(s2)C(=O)c2c(O)cccc2C3=O)n1" and report it.
Return: 1

Enquiry: Look up Activity of "CC1=CC(=O)c2ccccc2C1=O" and report it.
Return: 2.1

Enquiry: Look up Activity of "CC(=O)c1cc2c(s1)C(=O)c1c(O)cccc1C2=O" and report it.
Return: 1.1
